# maps each entry to its nonsense suppression
B1: tRNA (parent)
chain: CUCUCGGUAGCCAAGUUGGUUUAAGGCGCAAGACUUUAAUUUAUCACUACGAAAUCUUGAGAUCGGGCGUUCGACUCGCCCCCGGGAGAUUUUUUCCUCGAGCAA

- Variants of: B1
- Test method notes: nonsense suppression (GFP-seq) (ratio to wild type); higher = more function; SUP4oc tRNA, yeast GFP reporter sort-seq
Variants at the floor of the assay were thinned out.
// no unit, no text: just the number

Solved entries:
Variant notation: C29U G59C
nonsense suppression: 0.0272

Variant notation: C12U U20G
nonsense suppression: 0.455

Variant notation: A60G U71C
nonsense suppression: 0.0362

Variant notation: A13G A87G
nonsense suppression: 0.14

Variant notation: C5A G78U
nonsense suppression: 0.0303

Request: What does the record list as nonsense suppression for U57A A60C ?
Result: 0.0859

Request: I am curious: what nonsense suppression value has been reported for U55C G84U ?
Result: 0.0453

Request: // returns reported nonsense suppression for input G69U G86C
Result: 0.17

Request: Form field: reported nonsense suppression of "U17A"
Result: 0.937
